rate of inhibiting kinase activity v2 values for the molecules below.
# System: FGFR3-TACC3_v2 (N-FLAG) fusion polypeptide
# procedure text: In vitro kinase activity inhibition (HTRF KinEASE-TK)
# Type: biochemical, human
# details: 10 nM, 100 μM ATP
// note: answer is a bare numeric in %

Solved cases (3 shown):
molecule	result units	rate of inhibiting kinase activity v2
COc1cc(OC)c(F)c(COc2cnc(Nc3ccc(N4CCC(NCCO)CC4)cc3)nc2)c1F [Example 299]	%	77
COc1cc(OC)c(F)c(COc2cnc(Nc3cc(CN4CCN(C)CC4)n(C)n3)nc2)c1F [Example 248]	%	25
COc1cc(OC)c(F)c(COc2cnc(Nc3cnn(C[C@@H](O)CO)c3)nc2)c1F [Example 116]	%	73

Shifting focus to the molecule that follows.
Supply rate of inhibiting kinase activity v2 value. Item: COc1cc(OC)c(F)c(COc2cnc(Nc3ccc(N4CCN(C)CC4)cc3)nc2)c1F [Example 122] 80

Ref: patent US9464077B2
